experimentalSystem: Polyunsaturated fatty acid 5-lipoxygenase (Rattus norvegicus)
Sequence (P12527 whole entry): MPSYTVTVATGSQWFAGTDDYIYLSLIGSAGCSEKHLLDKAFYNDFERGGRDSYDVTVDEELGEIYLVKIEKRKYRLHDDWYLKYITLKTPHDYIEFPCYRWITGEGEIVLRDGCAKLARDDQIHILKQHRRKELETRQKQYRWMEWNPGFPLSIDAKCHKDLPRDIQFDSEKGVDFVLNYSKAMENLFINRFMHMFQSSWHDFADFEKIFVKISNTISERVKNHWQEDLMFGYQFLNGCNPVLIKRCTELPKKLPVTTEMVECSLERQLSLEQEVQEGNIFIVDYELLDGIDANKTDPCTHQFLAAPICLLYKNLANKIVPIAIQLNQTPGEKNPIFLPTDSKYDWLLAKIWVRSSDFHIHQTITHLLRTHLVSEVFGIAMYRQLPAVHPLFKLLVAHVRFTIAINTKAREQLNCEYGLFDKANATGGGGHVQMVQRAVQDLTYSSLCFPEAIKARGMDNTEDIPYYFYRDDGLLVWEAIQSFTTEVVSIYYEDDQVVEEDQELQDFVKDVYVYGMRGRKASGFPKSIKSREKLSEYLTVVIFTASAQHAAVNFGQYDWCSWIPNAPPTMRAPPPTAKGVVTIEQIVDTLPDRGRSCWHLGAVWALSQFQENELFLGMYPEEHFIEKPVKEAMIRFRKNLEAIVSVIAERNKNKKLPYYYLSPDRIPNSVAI

# molecule, qualifyingSign, IC50 / nM
rows = [
    ("O=C1NN(c2ccccc2)CC1CCO (centres undefined)", ">", 1000),
    ("O=C1NN(c2ccccc2)CC1Sc1ccccn1 (centres undefined)", "=", 120),
    ("O=C1NN(c2ccccc2)CC1C(O)(c1ccccc1)c1ccccc1 (centres undefined)", "<", 1000),
    ("COCCC1C(=O)NN(c2ccccc2)C1C (centres undefined)", "=", 500),
    ("O=C1CCCN(c2ccccc2)N1", "=", 530),
    ("COCC1(C)CN(c2ccccc2)NC1=O (centres undefined)", "=", 670),
    ("O=C1NN(c2ccccc2)CC1Cc1cccs1 (centres undefined)", "=", 140),
    ("COCCC1CN(c2ccc(Cl)c(Cl)c2)NC1=O (centres undefined)", "=", 190),
    ("COCCC1CN(c2ccc(Cl)cc2)NC1=O (centres undefined)", "=", 250),
    ("COCCC1CN(c2cccc(C(F)(F)F)c2)NC1=O (centres undefined)", "=", 220),
    ("CCSC1CN(c2ccccc2)NC1=O (centres undefined)", "=", 60),
    ("COCCc1cn(-c2ccccc2)[nH]c1=O", ">", 1000),
    ("CCCOCC1CN(c2ccccc2)NC1=O (centres undefined)", "=", 260),
    ("O=C1NN(c2ccccc2)CC1SCc1ccccc1 (centres undefined)", "=", 180),
]
